Listed here: compounds with reported Ki for ToxT (Vibrio cholerae serotype O1).
Endpoint: Ki (µM)

Compound	Numeric readout
Cc1cccc2c1C(CCC(=O)O)CCC2 (centres unmarked) [5a]	31
Cc1cccc2cccc(/C=C/CC(=O)O)c12 [3b]	10

----------
# System: V. cholerae classical strain O395
# Test details: Autoagglutination assay of O395 cultures
# Format: cell-based, Vibrio cholerae
# Condition label: 50 nM

Molecule	Assayed target	autoagglutination of O395 cultures
Cc1cccc2c1C(CCC(=O)O)CCC2 (stereo not shown)	V. cholerae classical strain O395	inhibited
Cc1cccc2cccc(CCC(=O)O)c12	V. cholerae classical strain O395	inhibited
Cc1cccc2cccc(/C=C/CC(=O)O)c12	V. cholerae classical strain O395	inhibited
Cc1cccc2cccc(CCCC(=O)O)c12	V. cholerae classical strain O395	inhibited
